Assay Procedure: in vitro
Experimental Conditions: mouse
Measure Name: viability at 8 h, 20 μM (%)
All answers are understood in %, so give the number only.

Look up and state reported viability at 8 h, 20 μM for CCN(CC)CCCC(C)Nc1ccnc2cc(Cl)ccc12 (stereo not shown) [chloroquine, reference compound]
93

====

Assay Procedure: in vitro
Experimental Conditions: mouse
Measure Name: viability at 24 h, 20 μM (%)
Your answer should be a plain number; it is taken to be in %.

Name the recorded viability at 24 h, 20 μM of the compound listed here: CCN(CC)CCCC(C)Nc1ccnc2cc(Cl)ccc12 (stereo not shown) [chloroquine, reference compound]
24

====

Assay Procedure: Cell viability via Calcein AM fluorogenic conversion assay
Experimental Conditions: mouse
Measure Name: viability at 24 h, 0.1 μM (%)
Reply numerically in %, unit not repeated.

Report measured viability at 24 h, 0.1 μM; entry is CN[C@@H]1C[C@H]2O[C@@](C)([C@@H]1OC)n1c3ccccc3c3c4c(c5c6ccccc6n2c5c31)C(=O)NC4 [staurosporine, reference compound]
44
